Kindly state inhibition for each of the entries shown.
Target: Mitogen-activated protein kinase 11 (Homo sapiens);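 also: reported values are averaged (mean) percent inhibition of p38beta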
Conditions: at 0.1 µM
Answers are plain numbers, in %.

Here's what some known entries look like.
Cc1cccc(Nc2ncc(-c3ccccc3)o2)c1 : 3.23
c1cc(-c2cnn3nc(N4CCOCC4)ccc23)nc(NC2CC2)n1 : 3.09
COc1cccc(-c2c[nH]c3c(N/N=C/c4ccncc4)ncnc23)c1 : 2.44

# return inhibition for each item in the list
1. CCn1c(-c2nonc2N)nc2c(C#CC(C)(C)O)ncc(OC3CCNCC3)c21
2. CC(=O)NCc1cccc(C#Cc2cncnc2Nc2ccc(OCc3cccc(F)c3)c(Cl)c2)c1
3. CC(=O)Nc1cccc(C#Cc2cncnc2Nc2ccc(OCc3cccc(F)c3)c(Cl)c2)c1
4. COc1ccc(CNC(=O)c2ccc(-c3cc(-c4nnc(C)o4)ccc3C)cc2)cc1

Ans.
1. 1.59
2. 1.26
3. 0.27
4. 10.1

Qu. # get_value(readout='inhibition', item= CCn1c(-c2nonc2N)nc2cnc(Oc3cccc(NC(=O)c4ccc(N(C)C)cc4)c3)cc21 )
Ans. 1.19

---

Record form. Attribute: inhibition. Fill in for each entry.
Molecular target: Protein kinase C theta type (Homo sapiens) (UniProt Q04759);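 also: reported figure is the mean percent inhibition of PKC-theta, from the GSK PKIS screen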
Sequence (Q04759 whole entry, looked up): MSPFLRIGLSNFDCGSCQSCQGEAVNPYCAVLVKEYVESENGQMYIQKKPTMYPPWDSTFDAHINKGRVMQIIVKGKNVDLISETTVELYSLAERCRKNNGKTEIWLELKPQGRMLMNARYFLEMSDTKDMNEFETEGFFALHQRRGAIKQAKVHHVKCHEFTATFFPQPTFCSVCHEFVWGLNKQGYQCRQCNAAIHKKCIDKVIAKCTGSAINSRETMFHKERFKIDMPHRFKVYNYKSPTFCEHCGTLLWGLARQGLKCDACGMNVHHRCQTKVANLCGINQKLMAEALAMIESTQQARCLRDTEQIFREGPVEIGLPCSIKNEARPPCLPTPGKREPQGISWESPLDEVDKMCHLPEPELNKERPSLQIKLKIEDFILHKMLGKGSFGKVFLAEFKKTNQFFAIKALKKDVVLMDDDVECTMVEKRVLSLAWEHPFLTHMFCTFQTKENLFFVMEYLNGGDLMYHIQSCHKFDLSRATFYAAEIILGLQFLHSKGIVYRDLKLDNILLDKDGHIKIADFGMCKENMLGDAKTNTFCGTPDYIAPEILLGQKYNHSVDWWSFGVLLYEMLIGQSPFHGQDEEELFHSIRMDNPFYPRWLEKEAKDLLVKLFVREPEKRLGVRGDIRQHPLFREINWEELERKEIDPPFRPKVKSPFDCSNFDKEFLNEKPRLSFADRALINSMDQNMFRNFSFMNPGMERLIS
Settings: at 0.1 µM
Note: state the figure and append the unit.

COc1ccc2c(-c3ccnc(Nc4cccc(OC(F)(F)F)c4)n3)cnn2n1 : 2.59%
Fc1cccc(COc2ccc(Nc3ncnc4sc(-c5ccco5)cc34)cc2Cl)c1 : 2%
Nc1nc(-c2cccc(Cl)c2)c(-c2ccc3ncccc3n2)s1 : 4.95%
CCn1c(-c2nonc2N)nc2ccccc21 : 1.58%
Clc1ccc(-c2nn3ncccc3c2-c2ccnc(Nc3ccccc3)n2)cc1 : 0.91%
FC(F)(F)c1cccc(-c2nn3ncccc3c2-c2ccnc(Nc3ccc4c(c3)OCCO4)n2)c1 : 0.59%
COC(=O)Nc1nc2ccc(S(=O)(=O)c3ccc(NC(=O)Nc4cc(C(F)(F)F)ccc4F)cc3)cc2[nH]1 : 0.7%
CN1CCC(n2cnc(-c3ccc(F)cc3)c2-c2ccnc(N)n2)CC1 : 1.72%
N#Cc1c(NC(=O)c2ccc(F)cc2)sc2c1CCCC2 : 0.53%

Now take the following compound into account.
Qu. Query (compound): Cc1cccc2c1NC(=O)/C2=N\Nc1ccc(S(N)(=O)=O)cc1 ; field requested: inhibition
Ans. 0.85%

---

Target: Serine/threonine-protein kinase 4 (Homo sapiens);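 also: mean inhibition of MST1, part of the GSK PKIS dataset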
Sequence (whole entry): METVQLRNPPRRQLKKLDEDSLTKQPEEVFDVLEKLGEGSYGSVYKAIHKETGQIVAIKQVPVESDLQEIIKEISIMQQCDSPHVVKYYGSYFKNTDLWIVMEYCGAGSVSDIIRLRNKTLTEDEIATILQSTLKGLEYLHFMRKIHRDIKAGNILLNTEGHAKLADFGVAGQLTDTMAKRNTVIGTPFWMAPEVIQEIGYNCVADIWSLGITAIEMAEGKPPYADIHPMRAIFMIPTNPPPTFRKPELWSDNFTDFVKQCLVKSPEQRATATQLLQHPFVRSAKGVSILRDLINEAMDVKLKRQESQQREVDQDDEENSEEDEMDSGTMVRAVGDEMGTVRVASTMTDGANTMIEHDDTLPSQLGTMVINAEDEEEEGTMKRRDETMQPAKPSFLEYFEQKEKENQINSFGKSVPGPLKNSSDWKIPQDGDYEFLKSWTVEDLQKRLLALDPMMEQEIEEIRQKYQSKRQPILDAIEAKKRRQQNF
Details: at 1 µM
PROPERTY: inhibition (%)
Give bare numbers, in %.

// solved cases for inhibition follow
CCn1c(-c2nonc2N)nc2cnc(Oc3cccc(NC(=O)c4ccc(N(C)C)cc4)c3)cc21 : 1.47
CCN(CC)S(=O)(=O)c1ccc(OC)c(Nc2ncc(-c3ccccc3)o2)c1 : 11
CC(=O)NCc1cccc(C#Cc2cncnc2Nc2ccc(OCc3cccc(F)c3)c(Cl)c2)c1 : 5.79
Nc1nc(-c2ccc(F)cc2)c(-c2ccc3ncccc3n2)s1 : 6.98

Qu. Missing value: inhibition, Serine/threonine-protein kinase 4 (Homo sapiens), entry CCn1cc(-c2ccnc3[nH]ccc23)c(-c2cccc(NC(=O)Nc3ccc(OCc4ccccc4)cc3)c2)n1 . Fill in?
Ans. 1.63
